molecular target: HSA (Homo sapiens); construct: purchased ADMEcell (Alameda, Calif.) TBP-0210-0096 / TBP-0210-1196; assay: TRANSIL binding assay, HSA; settings: PBS pH 7.4, 2 μM drug
Sequence (P02768 25-609): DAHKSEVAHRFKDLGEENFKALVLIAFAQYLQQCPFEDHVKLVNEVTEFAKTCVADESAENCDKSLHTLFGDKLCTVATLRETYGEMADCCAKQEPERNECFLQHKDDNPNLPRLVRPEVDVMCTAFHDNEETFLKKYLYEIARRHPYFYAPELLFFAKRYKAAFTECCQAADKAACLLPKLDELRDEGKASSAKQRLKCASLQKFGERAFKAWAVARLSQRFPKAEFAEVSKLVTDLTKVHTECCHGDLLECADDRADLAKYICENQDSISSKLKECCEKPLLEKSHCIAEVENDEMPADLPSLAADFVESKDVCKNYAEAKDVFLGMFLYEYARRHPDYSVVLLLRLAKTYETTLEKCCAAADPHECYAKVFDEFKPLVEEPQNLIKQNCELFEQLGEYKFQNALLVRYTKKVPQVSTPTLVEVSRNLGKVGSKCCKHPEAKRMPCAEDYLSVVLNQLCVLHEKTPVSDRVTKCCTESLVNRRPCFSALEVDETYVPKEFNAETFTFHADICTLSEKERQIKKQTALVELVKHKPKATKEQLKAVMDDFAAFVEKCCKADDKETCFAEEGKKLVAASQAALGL
measured.property: Kd (µM)
Please state the figure in µM; there is no need to write the unit.

Inquiry: Reported Kd, compound CON(C)C(=O)N1N=C(c2cc(F)ccc2F)S[C@@]1(CCCN)c1ccccc1.Cl [ARRY-520] : ____
Reply text: 147
